# Tested on: THP-1 cell viability, cytotoxicity
# method: cytotoxicity in THP-1 cells, cytotoxicity control, cell-based (AID 504640)
Where a SMILES comes first, the peptide text is derived from it. The star is where a group is joined. Cbz = O=C(OCc1ccccc1)*
measure-name: CC50

Solved entries (count: 3):
c1ccc(/N=C2\N=C(Nc3ccccn3)c3ccccc32)nc1 = < 0.2 µM
CC[N+](C)(CC)CCCCOc1ccc2c(c1)C(=O)c1cc(OCCCC[N+](C)(CC)CC)ccc1-2 = 23.1 µM
Cc1ccc2c(c1)c(C1=c3ccccc3=NC1=O)c(O)n2C = 12.6 µM

The following molecules each have a reported value; give each one's CC50.
1. O=C(/C=C/c1ccccc1)N1CCN(CCN2C(=O)c3cccc4cccc(c34)C2=O)CC1
2. Cc1cc(Br)ccc1NC(=O)c1cnc(N2CCN(c3ccccn3)CC2)c2ccccc12
3. Cc1ccc2ccc3ccc(C)nc3c2n1
4. CCC(C)Nc1ccc(NC(C)CC)cc1 (stereo unspecified)
5. O=C(NCC(c1cccs1)N1CCOCC1)c1cc([N+](=O)[O-])cc([N+](=O)[O-])c1 (stereo unspecified)
6. Cc1cccc(/C=C/C(=O)c2ccc([N+](=O)[O-])o2)c1
7. CCOC(=O)CNC(=O)[C@H](Cc1ccccc1)NC(=O)OCc1ccccc1 (Cbz-Phe-Gly-OEt)

Result:
1. 41.2 µM
2. 35.6 µM
3. < 0.2 µM
4. 3.31 µM
5. 58.4 µM
6. 6.64 µM
7. 43.1 µM
